Tested on: phosphorylation of Serine 473 in Akt in MDA-MB-468 human breast adenocarcinoma cell line
Assay: In Vitro Phospho-Ser473 Akt Assay
Format: cell-based
Conditions: Test (c), MDA-MB-468 cells, read-out: IC50, inhibition of phosphorylation of Serine 473 in Akt

# compound, tested_target, IC50
data = [
    ("CC(=O)Nc1ncc(-c2cc(NS(=O)(=O)c3ccccc3)cnc2C)s1 [Example 1]", "phosphorylation of Serine 473 in Akt in MDA-MB-468 human breast adenocarcinoma cell line", "~10 µM"),
]

* * *

Target: p110α Type Ia human PI3K (Homo sapiens, UniProt P42336)
Construct: full length DNA of each of the p110α, p110β and p110δ Type Ia human PI3K p110 isoforms; 6-His; Grp1 PH domain in E. coli
Sequence (P27986 whole entry, the tested form may be a part, canonical isoform): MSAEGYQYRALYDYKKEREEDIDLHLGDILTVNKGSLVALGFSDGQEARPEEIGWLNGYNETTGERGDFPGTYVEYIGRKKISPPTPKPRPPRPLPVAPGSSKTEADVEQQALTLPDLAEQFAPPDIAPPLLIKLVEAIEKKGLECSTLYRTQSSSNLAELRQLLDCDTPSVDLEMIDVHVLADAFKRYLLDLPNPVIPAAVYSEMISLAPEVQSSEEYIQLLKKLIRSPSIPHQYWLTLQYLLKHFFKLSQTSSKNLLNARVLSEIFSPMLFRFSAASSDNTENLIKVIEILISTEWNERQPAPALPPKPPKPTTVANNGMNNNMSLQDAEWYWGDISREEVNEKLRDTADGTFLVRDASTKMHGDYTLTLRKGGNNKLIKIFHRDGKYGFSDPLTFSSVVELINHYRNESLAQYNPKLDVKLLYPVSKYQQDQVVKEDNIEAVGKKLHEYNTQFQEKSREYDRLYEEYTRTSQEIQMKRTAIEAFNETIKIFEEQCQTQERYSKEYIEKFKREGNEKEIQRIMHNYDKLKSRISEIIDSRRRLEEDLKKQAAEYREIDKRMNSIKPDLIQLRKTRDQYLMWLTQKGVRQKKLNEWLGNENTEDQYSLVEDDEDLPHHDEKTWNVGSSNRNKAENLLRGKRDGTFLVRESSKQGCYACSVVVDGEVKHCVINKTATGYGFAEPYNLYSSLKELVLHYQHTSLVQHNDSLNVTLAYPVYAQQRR
Sequence (P42336 whole entry, the tested form may be a part, canonical isoform): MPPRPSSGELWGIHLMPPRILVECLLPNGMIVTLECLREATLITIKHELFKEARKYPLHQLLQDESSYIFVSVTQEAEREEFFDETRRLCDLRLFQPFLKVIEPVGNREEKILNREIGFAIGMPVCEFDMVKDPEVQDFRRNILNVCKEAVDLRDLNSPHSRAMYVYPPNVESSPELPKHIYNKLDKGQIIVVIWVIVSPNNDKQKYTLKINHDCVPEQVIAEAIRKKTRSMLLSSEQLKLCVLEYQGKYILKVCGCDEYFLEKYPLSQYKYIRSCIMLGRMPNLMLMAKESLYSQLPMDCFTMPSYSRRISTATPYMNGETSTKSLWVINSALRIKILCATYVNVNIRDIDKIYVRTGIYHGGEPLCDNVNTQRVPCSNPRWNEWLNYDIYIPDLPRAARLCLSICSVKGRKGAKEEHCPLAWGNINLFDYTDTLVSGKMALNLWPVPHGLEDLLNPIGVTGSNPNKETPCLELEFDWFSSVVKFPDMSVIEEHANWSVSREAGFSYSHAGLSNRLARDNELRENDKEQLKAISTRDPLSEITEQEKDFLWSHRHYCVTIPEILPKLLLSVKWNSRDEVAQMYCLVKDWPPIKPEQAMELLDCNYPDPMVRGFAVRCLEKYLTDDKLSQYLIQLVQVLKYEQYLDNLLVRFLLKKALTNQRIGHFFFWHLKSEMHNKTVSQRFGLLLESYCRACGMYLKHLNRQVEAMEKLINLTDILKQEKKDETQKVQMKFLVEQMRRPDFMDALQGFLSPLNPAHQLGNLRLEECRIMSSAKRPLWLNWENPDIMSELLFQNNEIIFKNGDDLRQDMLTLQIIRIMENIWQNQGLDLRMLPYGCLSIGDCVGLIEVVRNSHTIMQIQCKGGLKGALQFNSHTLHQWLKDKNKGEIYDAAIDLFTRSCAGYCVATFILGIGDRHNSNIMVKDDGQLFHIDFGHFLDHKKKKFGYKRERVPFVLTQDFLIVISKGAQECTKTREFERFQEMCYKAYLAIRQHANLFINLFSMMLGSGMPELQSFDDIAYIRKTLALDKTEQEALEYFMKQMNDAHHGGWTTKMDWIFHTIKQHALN
Test: In Vitro PI3K Enzyme Assay (AlphaScreen)
Details: Test (a); read-out: IC50 versus p110α Type Ia human PI3K
reported_property: IC50

# molecule_smiles, reported_property, obs_value
measured = [
    ("CC(=O)Nc1ncc(-c2cc(NS(=O)(=O)c3ccccc3)cnc2C)s1", "IC50", "~5 µM"),
]
